Just for reference, ChEMBL document CHEMBL4364239 is where these values come from.

Target: Serine/threonine-protein kinase TBK1 (Homo sapiens)
Sequence (Q9UHD2 whole entry): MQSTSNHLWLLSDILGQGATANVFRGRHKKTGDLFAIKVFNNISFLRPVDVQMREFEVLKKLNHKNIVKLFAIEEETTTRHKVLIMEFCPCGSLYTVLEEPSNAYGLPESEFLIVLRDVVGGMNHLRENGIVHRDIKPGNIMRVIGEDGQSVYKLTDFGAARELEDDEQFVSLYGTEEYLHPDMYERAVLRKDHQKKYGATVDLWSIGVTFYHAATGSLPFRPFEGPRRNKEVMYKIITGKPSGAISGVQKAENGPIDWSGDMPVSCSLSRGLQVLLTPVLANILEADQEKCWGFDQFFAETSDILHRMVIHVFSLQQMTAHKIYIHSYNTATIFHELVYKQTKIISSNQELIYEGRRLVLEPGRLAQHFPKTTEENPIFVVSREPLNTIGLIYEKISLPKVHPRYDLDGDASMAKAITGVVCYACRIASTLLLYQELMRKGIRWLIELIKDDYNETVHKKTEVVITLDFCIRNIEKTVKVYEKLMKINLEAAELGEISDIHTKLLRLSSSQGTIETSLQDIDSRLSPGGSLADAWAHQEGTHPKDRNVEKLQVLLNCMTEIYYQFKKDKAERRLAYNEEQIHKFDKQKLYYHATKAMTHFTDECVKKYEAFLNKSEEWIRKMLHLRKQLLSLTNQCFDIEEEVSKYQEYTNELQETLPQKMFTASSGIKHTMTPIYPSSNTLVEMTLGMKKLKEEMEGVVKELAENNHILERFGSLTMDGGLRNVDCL
Experiment: Inhibition of TBK1 in TLR3-stimulated human PBMC assessed as decrease in poly(I:C)-induced IFNalpha secretion preincubated for 1 hr followed by poly(I:C) addition and measured after 16 hrs by FACS based cytometric bead array method
ATTRIBUTE_MEASURED: pIC50
Answers are plain numbers, as −log10 of the molar value.

## Input Data request, read-out pIC50, for Cc1nn(CC(F)(F)F)cc1Nc1ncc(Br)c(NCc2ccc(S(N)(=O)=O)cc2)n1
## Output 6.10
